Values compiled from PubChem BioAssay AID196.

Tested on: BDF1 mice, intracerebral B16 melanoma, median survival T/C
Experiment: NCI In Vivo Anticancer Drug Screen. Data for tumor model B16 Melanoma (intracerebral) in B6D2F1 (BDF1) mice
Conditions: endpoint: median survival time; dose: 128.0 mg/kg/injection; schedule: Q01DX009 (ip); vehicle: Klucel (hydroxypropylcellulose) (HPC); higher = longer survival
Toxic doses and inconclusive results are not listed.
measured_quantity: T/C

In [3]: df
Out[3]:
                                   molecule                             tested_target   reported_result
0  COCC(O)Cn1ccnc1[N+](=O)[O-] (stereo not drawn)  BDF1 mice, intracerebral B16 melanoma, median survival T/C   89 % of control
1  CCCCCC(=O)O[C@]1(C(C)=O)CC[C@H]2[C@@H]3CCC4=CC(=O)CC[C@]4(C)[C@H]3CC[C@@]21C  BDF1 mice, intracerebral B16 melanoma, median survival T/C   98 % of control
2       CC/C(=C(/CC)c1ccc(O)cc1)c1ccc(O)cc1  BDF1 mice, intracerebral B16 melanoma, median survival T/C  104 % of control
3  C[C@]1(O)CC[C@H]2[C@@H]3CCC4=CC(=O)CC[C@]4(C)[C@@]3(F)[C@@H](O)C[C@@]21C  BDF1 mice, intracerebral B16 melanoma, median survival T/C  111 % of control
4  CN(Cc1cnc2nc(N)nc(N)c2n1)c1c(Cl)cc(C(=O)NC(CCC(=O)O)C(=O)O)cc1Cl (stereo not drawn)  BDF1 mice, intracerebral B16 melanoma, median survival T/C  100 % of control
5  CCCCCCC(=O)O[C@H]1CC[C@H]2[C@@H]3CCC4=CC(=O)CC[C@]4(C)[C@H]3CC[C@]12C  BDF1 mice, intracerebral B16 melanoma, median survival T/C  103 % of control
6  CCC(=O)O[C@H]1CC[C@H]2[C@@H]3CCC4=CC(=O)CC[C@]4(C)[C@H]3CC[C@]12C  BDF1 mice, intracerebral B16 melanoma, median survival T/C  123 % of control
7  CCC(=O)O[C@H]1CC[C@H]2[C@@H]3CC[C@H]4CC(=O)[C@H](C)C[C@]4(C)[C@H]3CC[C@]12C  BDF1 mice, intracerebral B16 melanoma, median survival T/C  101 % of control

====

Tested on: BDF1 mice, intracerebral B16 melanoma, median survival T/C
Experiment: NCI In Vivo Anticancer Drug Screen. Data for tumor model B16 Melanoma (intracerebral) in B6D2F1 (BDF1) mice
Settings: endpoint: median survival time; dose: 32.0 mg/kg/injection; schedule: Q01DX009 (ip); vehicle: Klucel (hydroxypropylcellulose) (HPC); higher = longer survival
Toxic doses and inconclusive results are not listed.
Catalogue of molecules with associated T/C
measured_quantity: T/C

                                   molecule   reported_result
0  CN(Cc1cnc2nc(N)nc(N)c2n1)c1c(Cl)cc(C(=O)NC(CCC(=O)O)C(=O)O)cc1Cl (configuration not stated)   94 % of control
1  CCCCCC(=O)O[C@]1(C(C)=O)CC[C@H]2[C@@H]3CCC4=CC(=O)CC[C@]4(C)[C@H]3CC[C@@]21C  100 % of control
2                  O=NN(CCCl)C(=O)NC1CCCCC1   95 % of control
3  CCCCCCC(=O)O[C@H]1CC[C@H]2[C@@H]3CCC4=CC(=O)CC[C@]4(C)[C@H]3CC[C@]12C  100 % of control
4  CCC(=O)O[C@H]1CC[C@H]2[C@@H]3CCC4=CC(=O)CC[C@]4(C)[C@H]3CC[C@]12C  111 % of control
5  CCC(=O)O[C@H]1CC[C@H]2[C@@H]3CC[C@H]4CC(=O)[C@H](C)C[C@]4(C)[C@H]3CC[C@]12C  105 % of control
6       CC/C(=C(/CC)c1ccc(O)cc1)c1ccc(O)cc1   95 % of control

====

Test system: BDF1 mice, intracerebral B16 melanoma, median survival T/C
Assay: NCI In Vivo Anticancer Drug Screen. Data for tumor model B16 Melanoma (intracerebral) in B6D2F1 (BDF1) mice
Details: endpoint: median survival time; dose: 128.0 mg/kg/injection; schedule: Q01DX005 (ip); vehicle: saline; higher = longer survival
Toxic doses and inconclusive results are not listed.
measured_quantity: T/C

>>> print(df.to_string())
                                   compound   reported_result
0  Nc1nc2c(c(=O)[nH]1)N(C=O)C(CNc1ccc(C(=O)N[C@@H](CCC(=O)O)C(=O)O)cc1)CN2 (some centres undefined)  102 % of control
1                        O=[N+]([O-])O.[Ga]  103 % of control
2                     CN=NNc1nc[nH]c1C(N)=O  107 % of control
3                              COS(C)(=O)=O  106 % of control

====

Test system: BDF1 mice, intracerebral B16 melanoma, median survival T/C
Assay: NCI In Vivo Anticancer Drug Screen. Data for tumor model B16 Melanoma (intracerebral) in B6D2F1 (BDF1) mice
Settings: endpoint: median survival time; dose: 16.0 mg/kg/injection; schedule: Q01DX009 (ip); vehicle: saline with Tween-80
Inconclusive results and toxic doses are left out. How the source made its calls: active means survival T/C of 150% or more; inactive means T/C below 125% in these data.
Outcomes: YES (active), NO (inactive)

                                   compound                             tested_target  classification
0  O=NN(CCCl)C(=O)NC1CCC(=O)NC1=O (stereo not given)  BDF1 mice, intracerebral B16 melanoma, median survival T/C              NO
1  CCN(CC)CCCC(C)Nc1c2ccc(Cl)cc2nc2ccc(OC)cc12 (stereo not given)  BDF1 mice, intracerebral B16 melanoma, median survival T/C              NO
2                  O=NN(CCCl)C(=O)NC1CCCCC1  BDF1 mice, intracerebral B16 melanoma, median survival T/C             YES
3  CC(=O)OCC1C(=O)OCC1C(=O)N1Cc2cc3ccccc3nc2C1 (stereo not given)  BDF1 mice, intracerebral B16 melanoma, median survival T/C              NO
4  O=C1c2ccccc2C(=O)c2c(NCCNCCO)ccc(NCCNCCO)c21  BDF1 mice, intracerebral B16 melanoma, median survival T/C              NO

====

System: BDF1 mice, intracerebral B16 melanoma, median survival T/C
Test: NCI In Vivo Anticancer Drug Screen. Data for tumor model B16 Melanoma (intracerebral) in B6D2F1 (BDF1) mice
Conditions: endpoint: median survival time; dose: 100.0 mg/kg/injection; schedule: Q01DX009 (ip); vehicle: other; higher = longer survival
Toxic doses and inconclusive results are not listed.
Catalogue of molecules with associated T/C
measured_quantity: T/C

In [3]: df
Out[3]:
                              cpd_smiles  measured_quantity   reported_result
0     Cc1ccc2c(c1)Sc1ccc(N=NN(C)C)cc1N2C                T/C  112 % of control
1   CN(C)N=Nc1ccc2c(c1)N(C)c1ccc(F)cc1S2                T/C  112 % of control
2  CN(C)N=Nc1ccc2c(c1)N(C)c1ccc(Cl)cc1S2                T/C  112 % of control
3    CN(C)N=Nc1cccc2c1N(C)c1ccc(Cl)cc1S2                T/C  101 % of control
4     CN(C)N=Nc1cccc2c1N(C)c1ccc(F)cc1S2                T/C  112 % of control

====

System: BDF1 mice, intracerebral B16 melanoma, median survival T/C
Test: NCI In Vivo Anticancer Drug Screen. Data for tumor model B16 Melanoma (intracerebral) in B6D2F1 (BDF1) mice
Conditions: endpoint: median survival time; dose: 25.0 mg/kg/injection; schedule: Q01DX009 (ip); vehicle: other; higher = longer survival
Toxic doses and inconclusive results are not listed.
Catalogue of compounds with associated T/C
measured_quantity: T/C

>>> print(df.to_string())
                              cpd_smiles   reported_result
0  CN(C)N=Nc1ccc2c(c1)N(C)c1ccc(Cl)cc1S2  102 % of control
1    CN(C)N=Nc1cccc2c1N(C)c1ccc(Cl)cc1S2  108 % of control
2     Cc1ccc2c(c1)Sc1ccc(N=NN(C)C)cc1N2C   98 % of control
3             CN(C)N=Nc1ccnc2ccc(Br)cc12  107 % of control
4              CN(C)N=Nc1ccnc2ccc(I)cc12  110 % of control
5   CN(C)N=Nc1ccc2c(c1)N(C)c1ccc(F)cc1S2  112 % of control
6     CN(C)N=Nc1cccc2c1N(C)c1ccc(F)cc1S2  108 % of control
7             CN(C)N=Nc1ccnc2c(Cl)cccc12  108 % of control
